Each recorded value in this set is attributed to paper PMC10825186.

# Substrate: O=C(O)C=C(O)C(=O)O
# MEASUREMENT_NOTES: purified protein
# SETTINGS: pH 7.5, 22 °C, 10 mM potassium phosphate, 0.3 mM NADH, malate dehydrogenase, OAA added in dry acetone
I'd be grateful if you could share measured kcat/Km for these entries.
Numbers only here, please. The scale is M⁻¹ s⁻¹.

Specify reported kcat/Km for the protein shown: Hs FAHD2B (Homo sapiens) (protein) AAQLPVLPWSEVTFLAPVTWPDKVVCVGMNYVDHCKEQNVPVPKEPIIFSKFASSIVGPYDEVVLPPQSQEVDWEVELAVVIGKKGKHIKATDAMAHVAGFTVAHDVSARDWLTRRNGKQWLLGKTFDTFCPLGPALVTKDSVADPHNLKICCRVNGEVVQSSNTNQMVFKTEDLIAWVSQFVTFYPGDVILTGTPPGVGVFRKPPVFLKKGDEVQCEIEELGVIINKVV
232000

Consider the protein Bs YisK (Bacillus subtilis subsp. subtilis str. 168) (protein) MKFATGELYNRMFVGLIIDDEKIMDLQKAEKKLFELETIPGSLIECIAEGDKFVAHARQLAEWAKKPNDELGSFMYSLSEVKLHAPIPKPSKNIICIGKNYRDHAIEMGSEADIPEHPMVFTKSPVTVTGHGDIVKSHEEVTSQLDYEGELAVVIGKSGTRISKEDAYDHVFGYTIVNDITARDLQKRHKQFFIGKSLDTTCPMGPVLVHKSSIQEPERLKVETRVNGELRQSGSASDMIFSIPELIETLSKGMTLEAGDIIATGTPSGVGKGFTPPKFLRSGDKIDITIDPIGTLSNQIG . State its measured kcat/Km.
5.81e+06

Entry Hs FAHD2A (Homo sapiens) (protein) AAQLPVLPRSEVTFLAPVTRPDKVVCVGMNYVDHCKEQNVPVPKEPIIFSKFASSIVGPYDEVVLPPQSQEVDWEVELAVVIGKKGKHIKATDAMAHVAGFTVAHDVSARDWQMRRNGKQWLLGKTFDTFCPLGPALVTKDSVADPHNLKICCRVNGEVVQSGNTNQMVFKTEDLIAWVSQFVTFYPGDVILTGTPPGVGVFRKPPVFLKKGDEVQCEIEELGVIINKVV needs its kcat/Km filled in; supply it.
628000

Please give measured kcat/Km of the following entry: Ec YcgM (Escherichia coli K-12) (protein) MYQHHNWQGALLDYPVSKVVCVGSNYAKHIKEMGSAVPEEPVLFIKPETALCDLRQPLAIPSDFGSVHHEVELAVLIGATLRQATEEHVRKAIAGYGVALDLTLRDVQGKMKKAGQPWEKAKAFDNSCPLSGFIPAAEFTGDPQNTTLSLSVNGEQRQQGTTADMIHKIVPLIAYMSKFFTLKAGDVVLTGTPDGVGPLQSGDELTVTFDGHSLTTRVL
5.95e+06

Give kcat/Km for Hs FAHD1 (Homo sapiens) (protein) MGIMAASRPLSRFWEWGKNIVCVGRNYADHVREMRSAVLSEPVLFLKPSTAYAPEGSPILMPAYTRNLHHELELGVVMGKRCRAVPEAAAMDYVGGYALCLDMTARDVQDECKKKGLPWTLAKSFTASCPVSAFVPKEKIPDPHKLKLWLKVNGELRQEGETSSMIFSIPYIISYVSKIITLEEGDIILTGTPKGVGPVKENDEIEAGIHGLVSMTFKVEKPEY
1.99e+06
